Test system: Human dermal fibroblasts from Friedreich's Ataxia patients
Run Description: Rescue of BSO-stressed FRDA fibroblasts (Calcein AM viability screen)
Type: cell-based
Measurement Setup: FRDA fibroblasts GM04078, 1 mM BSO, 48 h, first of three experiments, read-out: EC50 Value 1

{"columns": ["Molecule", "EC50 [nM]"],
 "data": [
  ["Cc1c(C)c2c(c(C)c1O)CC[C@@](C)(CCC[C@H](C)CCC[C@H](C)CCCC(C)C)O2 [alpha-tocopherol, (+)-alpha-tocopherol, reference compound]", 400]
]}

---

Attribute: pEC50
System: Human dermal fibroblasts from Friedreich's Ataxia patients
Run Description: Rescue of BSO-stressed FRDA fibroblasts (Calcein AM viability screen)
Format: cell-based
Measurement Setup: Homo sapiens, FRDA fibroblasts GM04078, 1 mM BSO, 48 h, first of three experiments, read-out: EC50 Value 1
pEC50: −log10 of the molar value.

{"columns": ["Molecule", "pEC50"],
 "data": [
  ["Cc1c(C)c2c(c(C)c1O)CCC(C)(C(=O)O)O2 (stereo not drawn) [Trolox, reference compound]", 5.05],
  ["CCCCCCCCCCC1=C(C)C(=O)C(OC)=C(OC)C1=O [decylubiquinone, reference compound]", 7.30],
  ["COC1=C(OC)C(=O)C(CCCCCCCCCCO)=C(C)C1=O [Idebenone, reference compound]", 5.82]
]}

---

Tested on: Human dermal fibroblasts from Friedreich's Ataxia patients
Run Description: Rescue of BSO-stressed FRDA fibroblasts (Calcein AM viability screen)
Type: cell-based
Measurement Setup: FRDA fibroblasts GM04078, 1 mM BSO, 48 h, third of three experiments, read-out: EC50 Value 3
Measured Parameter: EC50 (nM)

{"columns": ["Compound", "Target", "Result Number"],
 "data": [
  ["Cc1c(C)c2c(c(C)c1O)CC[C@@](C)(CCC[C@H](C)CCC[C@H](C)CCCC(C)C)O2 [alpha-tocopherol, (+)-alpha-tocopherol, reference compound]", "Human dermal fibroblasts from Friedreich's Ataxia patients", 350]
]}

Hey, just so you know, these numbers are from patent US10189830B2.
